Numbers sourced from the supplement of paper PMC6897291.

Test system: RIVA
experimental_protocol: growth inhibition by drug plus 177Lu-lilotomab satetraxetan (1 - RLU/untreated control) (fraction); higher = stronger inhibition
condition_context: 100 nM; time (day): 5; 177Lu-lilotomab satetraxetan 0.5 ug/ml
Structures can show the parent of a compound that is named as a salt.
quantity: growth inhibition by drug plus 177Lu-lilotomab satetraxetan

>  <compound>
CCOc1ccc(Cc2cc([C@@H]3O[C@H](CO)[C@@H](O)[C@H](O)[C@H]3O)ccc2Cl)cc1

>  <recorded_measurement>
0.572

$$$$
>  <compound>
CN(c1ncccc1CNc1nc(Nc2ccc3c(c2)CC(=O)N3)ncc1C(F)(F)F)S(C)(=O)=O

>  <recorded_measurement>
0.566

$$$$
>  <compound>
CCOc1ccn(-c2ccc(F)cc2)c(=O)c1C(=O)Nc1ccc(Oc2ccnc(N)c2Cl)c(F)c1

>  <recorded_measurement>
0.523

$$$$
>  <compound>
Nc1cc(C(F)(F)F)c(-c2cc(N3CCOCC3)nc(N3CCOCC3)n2)cn1

>  <recorded_measurement>
0.402

$$$$
>  <compound>
COCC[n+]1c2c(n(Cc3cnccn3)c1C)C(=O)c1ccccc1C2=O

>  <recorded_measurement>
0.989

$$$$
>  <compound>
FC(F)c1nc2ccccc2n1-c1nc(N2CCOCC2)nc(N2CCOCC2)n1

>  <recorded_measurement>
0.782

$$$$
>  <compound>
CO[C@@H](C(=O)N1Cc2[nH]nc(NC(=O)c3ccc(N4CCN(C)CC4)cc3)c2C1)c1ccccc1

>  <recorded_measurement>
0.685

$$$$
>  <compound>
CCOc1cc2ncc(C#N)c(Nc3ccc(F)c(Cl)c3)c2cc1NC(=O)/C=C/CN(C)C [Pelitinib (EKB-569)]

>  <recorded_measurement>
0.372

$$$$
>  <compound>
CC(C)(C)c1cc(NC(=O)Nc2ccc(-c3cn4c(n3)sc3cc(OCCN5CCOCC5)ccc34)cc2)no1

>  <recorded_measurement>
0.377

$$$$
>  <compound>
O=C(O)CC[C@H]1CC[C@@](c2cc(F)ccc2F)(S(=O)(=O)c2ccc(Cl)cc2)CC1

>  <recorded_measurement>
0.543

$$$$
>  <compound>
COc1cc(OC2CCN(C)CC2)ccc1Nc1ncc2c(n1)n(C1CCCC1)c(=O)n2C

>  <recorded_measurement>
0.453

$$$$
>  <compound>
Nc1cccc2c1C(=O)N(C1CCC(=O)NC1=O)C2=O (configuration not stated) [Pomalidomide]

>  <recorded_measurement>
0.434

$$$$
>  <compound>
COc1ccccc1OCC(O)CN1CCN(CC(=O)Nc2c(C)cccc2C)CC1 (configuration not stated) [Ranolazine (Ranexa)]

>  <recorded_measurement>
0.446

$$$$
>  <compound>
COc1cc2ncnc(Nc3ccc(F)c(Cl)c3)c2cc1NC(=O)/C=C/CN1CCCCC1

>  <recorded_measurement>
0.387

$$$$
>  <compound>
CS(=O)(=O)CCNCc1ccc(-c2ccc3ncnc(Nc4ccc(OCc5cccc(F)c5)c(Cl)c4)c3c2)o1 [Lapatinib Ditosylate (Tykerb)]

>  <recorded_measurement>
0.487

$$$$
>  <compound>
Cc1ccc([C@@H]2O[C@H](CO)[C@@H](O)[C@H](O)[C@H]2O)cc1Cc1ccc(-c2ccc(F)cc2)s1

>  <recorded_measurement>
0.439

$$$$
>  <compound>
OCCn1cc(-c2ccc3c(c2)CC/C3=N\O)c(-c2ccncc2)n1

>  <recorded_measurement>
0.585

$$$$
>  <compound>
C[C@H](NC(=O)Cc1cc(F)cc(F)c1)C(=O)N[C@H](C(=O)OC(C)(C)C)c1ccccc1

>  <recorded_measurement>
0.437

$$$$
>  <compound>
Cc1nc(N)sc1-c1ccnc(Nc2ccc(N3CCOCC3)cc2)n1

>  <recorded_measurement>
0.498

$$$$
>  <compound>
CC[C@@H]1C(=O)N(C)c2cnc(Nc3ccc(C(=O)N[C@H]4CC[C@H](N5CCN(CC6CC6)CC5)CC4)cc3OC)nc2N1C(C)C

>  <recorded_measurement>
0.975

$$$$
>  <compound>
C=CCn1c(=O)c2cnc(Nc3ccc(N4CCN(C)CC4)cc3)nc2n1-c1cccc(C(C)(C)O)n1

>  <recorded_measurement>
0.152

$$$$
>  <compound>
CCc1cc(Nc2nccc(-c3c(-c4ccc(OC)c(C(=O)Nc5c(F)cccc5F)c4)nc4ccccn34)n2)c(OC)cc1N1CCC(N2CCN(S(C)(=O)=O)CC2)CC1

>  <recorded_measurement>
0.481

$$$$
>  <compound>
O=C1c2ccccc2C(=O)c2c(NCCc3ccc(O)cc3)ccc(NCCc3ccc(O)cc3)c21

>  <recorded_measurement>
0.433

$$$$
>  <compound>
C[C@]12CCC(=O)C=C1CC[C@@H]1[C@@H]2[C@@H](O)C[C@@]2(C)[C@H]1CC[C@]2(O)C(=O)CO [Hydrocortisone (Cortisol)]

>  <recorded_measurement>
0.317

$$$$
>  <compound>
O=C(c1ccc(OCCN2CCCCC2)cc1)c1c(-c2ccc(O)cc2)sc2cc(O)ccc12 [Evista (Raloxifene Hydrochloride)]

>  <recorded_measurement>
0.477

$$$$
>  <compound>
C[C@@H](O[C@H]1OCCN(Cc2n[nH]c(=O)[nH]2)[C@H]1c1ccc(F)cc1)c1cc(C(F)(F)F)cc(C(F)(F)F)c1 [Aprepitant (MK-0869)]

>  <recorded_measurement>
0.441

$$$$
>  <compound>
O=C(O)CCCc1ccccc1 [4-Phenylbutyrate]

>  <recorded_measurement>
0.507

$$$$
>  <compound>
NC(=O)c1ccc(-c2nc(-c3ccccn3)c(-c3ccc4c(c3)OCO4)[nH]2)cc1

>  <recorded_measurement>
0.528

$$$$
>  <compound>
Cc1[nH]c(/C=C2\C(=O)Nc3ccc(S(=O)(=O)Cc4c(Cl)cccc4Cl)cc32)c(C)c1C(=O)N1CCC[C@@H]1CN1CCCC1

>  <recorded_measurement>
0.381

$$$$
>  <compound>
C[C@@H](Oc1cc(-c2cnn(C3CCNCC3)c2)cnc1N)c1c(Cl)ccc(F)c1Cl

>  <recorded_measurement>
0.532

$$$$
>  <compound>
CN(C)CCCN=c1c2ccccc2n(C)c2[nH]c(=O)n(C)c(=O)c12

>  <recorded_measurement>
0.601

$$$$
>  <compound>
C=C1/C(=C\C=C2/CCC[C@]3(C)[C@@H]([C@H](C)/C=C/[C@H](C)C(C)C)CC[C@@H]23)C[C@@H](O)C[C@@H]1O

>  <recorded_measurement>
0.563

$$$$
